# credit: patent US20120190620A1

test system: HeLa cells; assay: Purinosome dynamics DMR screen, sequential order molecule, DMAT, TBB; format: cell-based, human; details: adrenergic receptor ligand library; order ligand, DMAT, TBB; FIG. 5

{"columns": ["Molecule", "modulation of the TBB signal"],
 "data": [
  ["CNC[C@H](O)c1cccc(O)c1 [phenylephrine, (R)-(−)-phenylephrine]", "potentiate"],
  ["N=C(N)N/N=C/c1c(Cl)cccc1Cl", "potentiate"],
  ["CC(N)C(O)c1ccc(O)c(O)c1 (stereo not drawn)", "potentiate"],
  ["NC[C@H](O)c1ccc(O)c(O)c1 [norepinephrine]", "potentiate"],
  ["N=C(N)NC(=O)Cc1c(Cl)cccc1Cl", "potentiate"],
  ["c1ccc2c(c1)[I+]c1ccccc1-2", "suppress"],
  ["CS(=O)(=O)Nc1c(O)ccc2c1CCCC2C1=NCCN1 (stereo not drawn)", "potentiate"],
  ["N=C(CC(O)COc1ccccc1-c1ccccc1)N1CCCCC1 (stereo not drawn) [AH11110A]", "suppress"],
  ["CNC[C@H](O)c1ccc(O)c(O)c1 [epinephrine, Epinephrine]", "potentiate"],
  ["Cc1cc(C(C)(C)C)c(O)c(C)c1CC1=NCCN1", "potentiate"],
  ["c1ccc2c(CC3=NCCN3)cccc2c1", "potentiate"],
  ["CC(C)(Cc1c[nH]c2ccc(Cl)cc12)NCCOc1ccccc1OCC1CC1", "suppress"],
  ["CNCCCC12CCC(c3ccccc31)c1ccccc12", "suppress"],
  ["Cc1cccc(C)c1N=C1NCCCS1", "potentiate"],
  ["Brc1c(NC2=NCCN2)ccc2nccnc12", "potentiate"],
  ["Clc1ccc2c(c1)C(N1CCNCC1)=Nc1ccccc1O2", "suppress"],
  ["Clc1cccc(Cl)c1N=C1NCCN1", "potentiate"],
  ["Clc1ccc2nsnc2c1NC1=NCCN1", "potentiate"],
  ["C1COC(NC(C2CC2)C2CC2)=N1", "potentiate"],
  ["NCCc1ccc(O)c(O)c1", "potentiate"],
  ["CC(C(O)c1ccc(O)cc1)N1CCC(Cc2ccccc2)CC1 (stereo not drawn)", "suppress"]
]}

###

test system: HeLa cells; test: Purinosome dynamics DMR screen, sequential order molecule, DMAT, TBB; type: cell-based, human; settings: adrenergic receptor ligand library; order ligand, DMAT, TBB; FIG. 5

{"columns": ["Compound", "Test target", "modulation of the DMAT signal"],
 "data": [
  ["N=C(CC(O)COc1ccccc1-c1ccccc1)N1CCCCC1 (stereo not shown) [AH11110A]", "HeLa cells", "potentiate"],
  ["CC(N)C(O)c1ccc(O)c(O)c1 (stereo not shown) [methylnorephrine]", "HeLa cells", "suppress"],
  ["CNC[C@H](O)c1cccc(O)c1 [phenylephrine, (R)-(−)-phenylephrine]", "HeLa cells", "suppress"],
  ["C1COC(NC(C2CC2)C2CC2)=N1 [rilmenidine]", "HeLa cells", "suppress"],
  ["CC(C(O)c1ccc(O)cc1)N1CCC(Cc2ccccc2)CC1 (stereo not shown) [ifenprodil]", "HeLa cells", "potentiate"],
  ["N=C(N)N/N=C/c1c(Cl)cccc1Cl [guanabenz]", "HeLa cells", "suppress"]
]}
